- MEASUREMENT_DESCRIPTION: Half life in Sprague-Dawley rat at 5 mg/kg, po or 0.5 mg/kg, iv measured up to 24 hrs by HPLC-MS/MS analysis
- Assay type: ADME, organism-based
- CONDITION_SUMMARY: in vivo
Positions of bridges follow the written chain, without caps; N, C: chain ends. Non-standard residues stand in square brackets, D forms with d. Residues, ends and D or L forms follow the SMILES beside them. NMeNle = CCCC[C@H](NC)C(=O)O; Nle = CCCC[C@H](N)C(=O)O
OBSERVED_PROPERTY: half-life (min)

[[record]]
compound = "CCCC[C@@H]1NC(=O)[C@H](Cc2ccccc2)NC(=O)CSC[C@H](C(=O)NC)NC(=O)[C@H](CCCC)NC(=O)[C@H](CCCC)NC(=O)[C@H](CCCC)NC1=O"
observed_property = "half-life"
numeric_value = 18

[[record]]
compound = "CCCC[C@@H]1NC(=O)[C@H](CCCC)NC(=O)[C@H](CCCC)N(C)C(=O)[C@@H]2CCCN2C(=O)[C@H](CCCC)N(C)C(=O)[C@H](Cc2ccccc2)NC(=O)CSC[C@@H](C(=O)NC)NC1=O ({CH2CO}-F[NMeNle]P[NMeNle][Nle][Nle]C-NHMe; thioether N-7)"
observed_property = "half-life"
numeric_value = 42

[[record]]
compound = "CCCC[C@@H]1NC(=O)[C@H](CCCC)N(C)C(=O)[C@@H]2CCCN2C(=O)[C@H](CCCC)N(C)C(=O)[C@H](Cc2ccccc2)NC(=O)CSC[C@@H](C(=O)NC)NC(=O)[C@H](CCCC)N(C)C1=O ({CH2CO}-F[NMeNle]P[NMeNle][Nle][NMeNle]C-NHMe; thioether N-7)"
observed_property = "half-life"
numeric_value = 36

[[record]]
compound = "CCCC[C@@H]1NC(=O)C2CCCN2C(=O)[C@H](CCCC)NC(=O)[C@H](Cc2ccccc2)NC(=O)CSC[C@H](C(=O)NC)NC(=O)[C@H](CCCC)NC1=O (some centres undefined)"
observed_property = "half-life"
numeric_value = 12

